The reader will find reported remaining at 0.5 h, 1 µM values listed item by item below.
assay_summary: Metabolic stability in monkey liver microsomes assessed as compound remaining at 1 uM preincubated for 5 mins followed by NADPH addition and measured after 30 mins by LC-MS/MS analysis
Format: ADME, Macaca mulatta, Microsome
test_context: rhesus monkey, read-out: Stability
Reply numerically in %, unit not repeated.

CCC(=O)c1sc(-c2ccc(Cl)cc2)c(C)c1-c1ccc(S(N)(=O)=O)cc1 = 79

Turning to the following molecule.
Exam item: Identify measured remaining at 0.5 h, 1 µM associated with `CCC(=O)c1sc(-c2ccc(OC)cc2)c(C)c1-c1ccc(S(N)(=O)=O)cc1`
Marked response: 67

---

assay_summary: Half life in Wistar rat at 1 mg/kg, iv after 0.083 to 144 hrs by LC-MS/MS analysis
Format: ADME, organism-based
test_context: in vivo
property_measured: half-life (h)
Reply numerically in h, unit not repeated.

Exam item: Identify measured half-life associated with `CCC(=O)c1sc(-c2ccc(OC)cc2)c(C)c1-c1ccc(S(N)(=O)=O)cc1`
Marked response: 1.4

Exam item: Identify measured half-life associated with `CCC(=O)c1sc(-c2ccc(Cl)cc2)c(C)c1-c1ccc(S(N)(=O)=O)cc1`
Marked response: 45

---

assay_summary: Drug concentration in Wistar rat brain at 10 mg/kg, po after 8 hrs by LC-MS/MS analysis
Format: ADME, organism-based
test_context: read-out: Drug uptake
property_measured: concentration at 8 h

Exam item: Identify measured concentration at 8 h associated with `CCC(=O)c1sc(-c2ccc(Cl)cc2)c(C)c1-c1ccc(S(N)(=O)=O)cc1`
Marked response: 6.39 µM

---

assay_summary: Ratio of drug level in rat brain to plasma at 10 mg/kg, ip by HPLC-LC/MS analysis
Assay type: ADME, organism-based
test_context: brain and plasma, read-out: BPR
property_measured: Kp
Lab note: record the figure alone, no unit after it.

Exam item: Identify measured Kp associated with `O=C(Nc1cc(Cl)ccc1O)Nc1cc(C(F)(F)F)ccc1Cl`
Marked response: 0.5

---

assay_summary: Drug level in Wistar rat plasma at 0.15 mg/kg, po
Format: ADME, organism-based
test_context: in vivo
property_measured: concentration (nM)
Reply numerically in nM, unit not repeated.

Exam item: Identify measured concentration associated with `CCC(=O)c1sc(-c2ccc(Cl)cc2)c(C)c1-c1ccc(S(N)(=O)=O)cc1`
Marked response: 70

---

The reader will find reported half-life values listed item by item below.
assay_summary: Half life in Beagle dog at 1 mg/kg, iv after 0.083 to 144 hrs by LC-MS/MS analysis
Type: ADME, organism-based, Canis lupus familiaris
test_context: in vivo
Reply numerically in h, unit not repeated.

CCC(=O)c1sc(-c2ccc(OC)cc2)c(C)c1-c1ccc(S(N)(=O)=O)cc1 = 2

Exam item: Identify measured half-life associated with `CCC(=O)c1sc(-c2ccc(Cl)cc2)c(C)c1-c1ccc(S(N)(=O)=O)cc1`
Marked response: 88

---

assay_summary: Drug concentration in Wistar rat brain at 10 mg/kg, po after 1 hr by LC-MS/MS analysis
Type: ADME, organism-based
test_context: read-out: Drug uptake
property_measured: concentration at 1 h

Exam item: Identify measured concentration at 1 h associated with `CCC(=O)c1sc(-c2ccc(Cl)cc2)c(C)c1-c1ccc(S(N)(=O)=O)cc1`
Marked response: 4.03 µM
